- Protocol Text: yeast display, Sf9 membrane polyspecificity reagent, FACS + sequencing; frameworks hold sequencing errors

- Sequence Entry: "QVQLVESGGGLVQAGGSVRLSCAASGRILKVYPMGWYRQAPGKEWEFVAAISVNGGRTYYADSVKGRFTISRDNAKNTVYLQRQRLNPEDTAVYYCAKRLYKPGNVFYSVDQSDYWGQGTQVTVSS"
  polyreactivity (PSR sort gate): "low polyreactivity"
- Sequence Entry: "QVQLVESVGGLVQAGGSLRLSCAASGRIFSVNAMGWYRQAPGKERELVAAITTRGGTTYYADSVKGRFTISRDNAKNTVYLQMNSLKPEDTAVYYCAAESSWYVYWEWAHDYWGQGTQVTVSS"
  polyreactivity (PSR sort gate): "low polyreactivity"
